Test system: SEM cells
Measurement Description: cell viability relative to DMSO control; higher = less cytotoxic
Settings: RPMI 5 mM glucose + 10% dialyzed FBS; 48 h; 1.71 µM
Field 'label' (enum: 1 / 0). Set to 1 when cell viability is strictly under 70%; else 0.

IN: Field: below-cutoff. Rule: recorded cell viability strictly less than 70%. Subject: CC(C)(O)/C=C\C(=O)[C@](C)(O)[C@H]1[C@H](O)C[C@]2(C)[C@@H]3CC=C4[C@@H](C=C(O)C(=O)C4(C)C)[C@]3(C)C(=O)C[C@@]12C
OUT: 1

IN: Confirm or reject: cell viability of N[S+](=O)([O-])OC[C@@H]1C[C@@H](n2ccc3c(N[C@H]4CCc5ccccc54)ncnc32)C[C@@H]1O lies strictly below 70%
OUT: 1

IN: Criterion: cell viability strictly below 70%. Is it met by CC1(C)C(N(O)C(=O)Nc2ccc(Cl)cc2)N(c2ccc(Cl)cc2)C(=O)N1CC(=O)N/N=C/C=C/c1ccc([N+](=O)[O-])o1 (configuration not stated) ?
OUT: 0

IN: Determine whether this compound shows cell viability lower than 70% (ties excluded): CNC(=O)Nc1ccc(-c2nc(N3CC4CCC(C3)O4)c3cnn(C4CCC5(CC4)OCCO5)c3n2)cc1
OUT: 1

IN: Determine if COc1cc(C)c(Sc2cnc(NC(=O)c3ccc(CNC(C)C(C)C)cc3)s2)cc1C(=O)N1CCN(C(C)=O)CC1 (configuration not stated) shows cell viability strictly lower than 70%.
OUT: 0

IN: Problem: For the compound CCOC(=O)\C1=C\[C@@H](OC(CC)CC)[C@H](NC(C)=O)[C@@H](N)C1 , is cell viability under 70%?
OUT: 0

IN: Strictly below 70%: is that where cell viability of COC(=O)\C1=C\CCN(C)C1 sits?
OUT: 0

###

Test system: SEM cells
Measurement Description: cell viability relative to DMSO control; higher = less cytotoxic
Settings: RPMI 5 mM glucose + 10% dialyzed FBS; 48 h; 0.569 µM
Readout Type: cell viability (%)
Use % as the unit, but write only the number.

IN: Read off the recorded cell viability for OC[C@H]1O[C@@H]2[C@@H](OC\3=N\C(=N)\C=C/[N@@]23)[C@@H]1O
OUT: 22.4

IN: Query cell viability for NC/1=N/C(=O)N(/C=N1)[C@@H]2O[C@H](CO)[C@@H](O)[C@H]2O
OUT: 82.3

IN: Note down cell viability recorded for OCc1ccc(-c2ccc(-c3ccc(CO)s3)o2)s1
OUT: 110

IN: Note cell viability for the compound shown: CC(NCCc1ccc(O)cc1)C(O)c1ccc(O)cc1 (stereo not given)
OUT: 90.6

IN: Give a short answer stating reported cell viability for CCOC(=O)\C1=C\[C@@H](OC(CC)CC)[C@H](NC(C)=O)[C@@H](N)C1 .
OUT: 102

###

Test system: SEM cells
Measurement Description: AUC of viability dose-response curve (% viability x log10 dose units); higher = less sensitive
Settings: HPLM + 10% dialyzed FBS; 48 h
Readout Type: AUC of viability dose-response curve
Give a plain numeric answer without units written out.

IN: Annotate the compound OC(CN1CCN(c2cccc(Cl)c2)CC1)C(c1ccccc1)c1ccccc1 (centres undefined) with its measured AUC of viability dose-response curve.
OUT: 319

IN: Hello, please tell me recorded AUC of viability dose-response curve for this one: C#CCN[C@@H]1CCc2ccccc21.CS(=O)(=O)O
OUT: 445

IN: Look up AUC of viability dose-response curve of COC1=CC=C2/C3=N/CCN3\C(=N/C2=C1OC)NC(=O)C4=CC=CN=C4 and report it.
OUT: 452

IN: Quote AUC of viability dose-response curve reported for CCOC1=CC=CC=C1N\2C(=O)C3=C(C=CC=C3)\N=C2C(C)N4CCN(CC4)C(=O)COC5=CC=C(Cl)C=C5 (centres undefined) please.
OUT: 323

IN: Please indicate AUC of viability dose-response curve recorded for COc1ccc2c(c1OC)C(=O)O[C@H]2[C@H]1c2c(cc3c(c2OC)OCO3)CCN1C
OUT: 263

IN: Give the reported value of AUC of viability dose-response curve for this record: OC1=CC2=C(C(=C1)O)C(=O)\C(=C(/O2)C3=CC(=C(O)C=C3)O)O
OUT: 454

IN: Note down AUC of viability dose-response curve recorded for C[C@@H]1C[C@H]2[C@@H]3\C=C(C)/C4=C/C5=C(C[C@]4(C)[C@H]3[C@@H](O)C[C@]2(C)[C@@]1(O)C(=O)CO)C=N[N]5C6=CC=CC=C6
OUT: 296

IN: Quickly give me recorded AUC of viability dose-response curve for O=c1[nH]c(=O)n(C2CCCO2)cc1F (centres undefined)
OUT: 448

IN: Name the recorded AUC of viability dose-response curve of the item CCOC(=O)/C=C/[C@H](C[C@@H]1CCNC1=O)NC(=O)[C@@H](CC(=O)[C@@H](NC(=O)c1cc(C)on1)C(C)C)Cc1ccc(F)cc1 in your answer.
OUT: 452

###

Test system: P12-Ichikawa
Measurement Description: cell viability relative to DMSO control; higher = less cytotoxic
Settings: HPLM + 10% dialyzed FBS; 48 h; 0.0632 µM
Hi there, I'd appreciate the recorded cell viability for every entry that follows.
The figure you give is taken to be in %; do not add the unit.

IN: Tell me cell viability reported for OCCn1cc(-c2cnc3nnn(Cc4ccc5ncccc5c4)c3n2)cn1
OUT: 112

IN: // Input: CCOC(=O)Nc1ccc(NCc2ccc(F)cc2)nc1N . Output its cell viability only.
OUT: 120

IN: Specify measured cell viability for CCOC(=O)\C1=C\[C@@H](OC(CC)CC)[C@H](NC(C)=O)[C@@H](N)C1 .
OUT: 92.3

IN: Answer with the recorded cell viability for the compound listed here: N[S+](=O)([O-])OC[C@@H]1C[C@@H](n2ccc3c(N[C@H]4CCc5ccccc54)ncnc32)C[C@@H]1O
OUT: 113

IN: Retrieve cell viability measured for C[C@]12CC[C@H]3[C@@H](CCC/4=C/C(=O)CC[C@]34C)[C@@H]1CC[C@@H]2OC(=O)CCC5CCCC5 and print it.
OUT: 98.8

IN: Identify the reported cell viability for the following entry. COC(=O)N1CC2(CC2)C[C@H](C(=O)NO)[C@H]1C(=O)N1CCN(c2ccccc2)CC1
OUT: 117

IN: Quick one: give measured cell viability for Nc1nc(Cl)nc2c1ncn2[C@@H]1O[C@H](CO)[C@@H](O)[C@@H]1F
OUT: 18.8

IN: Report cell viability, nothing else, for this compound: CC[C@]1(O)C[C@@H]2CN(CCc3c([nH]c4ccccc34)[C@@](C(=O)OC)(c3cc4c(cc3OC)N(C)[C@H]3[C@@](O)(C(N)=O)[C@H](O)[C@]5(CC)C=CCN6CC[C@]43[C@@H]65)C2)C1
OUT: 78.4

IN: Retrieve cell viability measured for COc1ncc(-c2ccc3c(Nc4cc(Oc5cc(F)cc(F)c5)cc(C(=O)O)c4)c([S+](=O)([O-])NC4CC4)cnc3c2)c(OC)n1 and print it.
OUT: 91.5

IN: Tell me measured cell viability for CCOC(=O)/C=C/[C@H](C[C@@H]1CCNC1=O)NC(=O)[C@@H](CC(=O)[C@@H](NC(=O)c1cc(C)on1)C(C)C)Cc1ccc(F)cc1 please.
OUT: 130

IN: Report cell viability for NC(=O)NO
OUT: 94.3

IN: Identify measured cell viability corresponding to Cc1c[nH]c(-c2cnc(NCCNc3ccc(C#N)cn3)nc2-c2ccc(Cl)cc2Cl)n1
OUT: 87.7

IN: Write down cell viability measured for item N#C/C(C(=O)c1ccc(Cl)cc1Cl)=C1/NC(=O)c2ccc(Cl)cc2N1
OUT: 111

IN: Give cell viability for the following compound: CCOc1ccc(Cc2cc([C@@H]3O[C@H](CO)[C@@H](O)[C@H](O)[C@H]3O)ccc2Cl)cc1
OUT: 125

IN: Provide only the value of recorded cell viability for CCN1CCN(C(=O)Cc2ccc(Nc3ncc(F)c(Nc4ccc(C(=O)Nc5ccccc5Cl)cc4)n3)cc2)CC1
OUT: 116

IN: Kindly indicate its recorded cell viability. Item: CN1CCN(CCOc2cc(OC3CCOCC3)c3c(Nc4c(Cl)ccc5c4OCO5)ncnc3c2)CC1
OUT: 130

IN: Please list cell viability recorded for the compound Nc1ncnc2c1c(-c1cccc(OCc3ccccc3)c1)cn2C1CC(CN2CCCC2)C1 (stereo not given)
OUT: 134

IN: Look up and report measured cell viability for this entry: Cc1noc(-c2ccc(CSCCC(=O)O)cc2)c1NC(=O)OC(C)c1ccccc1Cl (stereo not given)
OUT: 95.4

IN: Input Cc1onc(-c2ccccc2)c1C(=O)N[C@@H]1C(=O)N2[C@@H]1SC(C)(C)[C@@H]2C(=O)[O-].[Na+] , output reported cell viability.
OUT: 116

IN: Report cell viability for CC(O)C1C2C(C)\C(=C(/N2C1=O)C(O)=O)SC3CNC(C3)C(=O)N(C)C (stereo not given)
OUT: 93.2

IN: Report cell viability for CN(C)CCN1C(=O)c2cccc3cc(N)cc(c23)C1=O
OUT: 111

IN: Dear colleague, please send me the reported cell viability for OC[C@H]1O[C@@H]2[C@@H](OC\3=N\C(=N)\C=C/[N@@]23)[C@@H]1O when you can.
OUT: 95.6

IN: Input O=c1[nH]c(=O)n(C2CCCO2)cc1F (stereo not given) , output reported cell viability.
OUT: 125

IN: Please supply the value of reported cell viability for the item COc1cccc2c1CCCC2CCCN1CCN(C2CCCCC2)CC1 (stereo not given)
OUT: 106

IN: Give me measured cell viability, please, for this compound: CCCC1OC2C[C@H]3[C@@H]4CCC5=CC(=O)C=C[C@]5(C)[C@H]4C(O)C[C@]3(C)[C@]2(C(=O)CO)O1 (stereo not given in full)
OUT: 79
